Tested on: A549
assay: Cytotoxicity against human A549 cells after 48 hrs by sulforhodamine B assay
Assay type: functional, cell-based
conditions: A549, 48 h
test-readout: IC50 (µM)

| item-smiles | test-readout | qualifier-symbol | measured-number |
| --- | --- | --- | --- |
| CC(=O)OC[C@H]1O[C@@H](n2cc(Cn3cc([N+](=O)[O-])c4ccccc43)nn2)[C@H](OC(C)=O)[C@@H](OC(C)=O)[C@@H]1OC(C)=O | IC50 | = | 93.2 |
| CCC/C=C1/C(=O)N(Cc2cn([C@@H]3O[C@H](COC(C)=O)[C@@H](OC(C)=O)[C@H](OC(C)=O)[C@H]3OC(C)=O)nn2)c2ccccc21 | IC50 | = | 24.1 |
| CC(=O)OC[C@H]1O[C@@H](n2cc(CN3C(=O)/C(=C/c4ccc(N(C)C)cc4)c4ccccc43)nn2)[C@H](OC(C)=O)[C@@H](OC(C)=O)[C@@H]1OC(C)=O | IC50 | = | 19.4 |
| CCC/C=C1\C(=O)N(Cc2cn([C@@H]3O[C@H](COC(C)=O)[C@@H](OC(C)=O)[C@H](OC(C)=O)[C@H]3OC(C)=O)nn2)c2ccccc21 | IC50 | = | 40.4 |
| CC(=O)OC[C@H]1O[C@@H](n2cc(CN3C(=O)/C(=C/C=C/c4ccccc4)c4ccccc43)nn2)[C@H](OC(C)=O)[C@@H](OC(C)=O)[C@@H]1OC(C)=O | IC50 | > | 100 |
| CC(=O)OC[C@H]1O[C@@H](n2cc(CN3C(=O)/C(=C/c4ccccc4)c4ccccc43)nn2)[C@H](OC(C)=O)[C@@H](OC(C)=O)[C@@H]1OC(C)=O | IC50 | = | 20.6 |

Cited source for all entries: ChEMBL document CHEMBL3797105
